Target: UniProtKB P61088
Sequence (P61088 whole entry): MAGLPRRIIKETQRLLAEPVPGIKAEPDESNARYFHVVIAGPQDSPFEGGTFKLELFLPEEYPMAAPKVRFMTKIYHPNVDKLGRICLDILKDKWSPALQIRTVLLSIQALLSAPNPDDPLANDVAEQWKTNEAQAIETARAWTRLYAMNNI
Assay type: functional
Calls of active or inactive are those of the source.
Outcome codes: 1.0 (active), 0.0 (inactive)

{"compound": "CC[C@H](C)[C@@H](CN[C@H](C)CNC)NCCC(c1ccccc1)c1ccccc1", "group": 0.0}
{"compound": "COc1cc(C2C(C#N)=C(N)Oc3[nH]nc(-c4cccs4)c32)cc(OC)c1O (stereo not drawn)", "group": 1.0}
{"compound": "CCOc1ccc(N2C(=O)C3C(c4ccccc4)=NN(c4ccccc4)C3C2=O)cc1 (stereo not drawn)", "group": 0.0}
{"compound": "CCCCCCCCCCOC(=O)Cn1c(COc2cccc(OC)c2)[n+](C)c2ccccc21", "group": 0.0}
{"compound": "O=C(CCCCCn1c(SCc2ccncc2)nc2ccccc2c1=O)NCc1ccco1", "group": 0.0}
{"compound": "CN(C)CCCN(C(=O)c1ccc(S(=O)(=O)N2CCCCC2)cc1)c1nc2cc3c(cc2s1)OCO3", "group": 1.0}
{"compound": "CCOc1ccc(NC(=O)Cn2c(=O)n(CCCC(=O)NC3CCN(Cc4ccccc4)CC3)c(=O)c3ccccc32)cc1", "group": 1.0}
{"compound": "NC(=O)CCn1c(C(=O)c2cc(Cl)c(N)c(Cl)c2)c2ccccc2[n+]1[O-]", "group": 0.0}

###

Target: FAD-linked sulfhydryl oxidase ALR (Homo sapiens)
Sequence (P55789 whole entry): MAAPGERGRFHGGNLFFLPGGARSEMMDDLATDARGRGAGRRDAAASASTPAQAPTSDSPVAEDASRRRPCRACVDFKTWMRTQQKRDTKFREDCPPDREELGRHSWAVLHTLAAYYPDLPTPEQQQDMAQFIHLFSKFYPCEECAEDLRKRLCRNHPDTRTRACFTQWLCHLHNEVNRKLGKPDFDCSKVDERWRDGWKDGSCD
Experiment: ALR-catalysed DTT oxidation blockers – biochemical, H2O2 detection, luminescence, cherry-pick, dose response (AID 493248)
Active and inactive are the calls of the source.

{"molecule": "Fc1ccc(Nc2c3c(nc4ccccc24)CCC3)cc1", "AC50": "6310 nM (active)"}
{"molecule": "CC1CCC2C(C1)Nc1c(C(=O)O)cccc1C2(C)C (configuration not stated)", "AC50": "4550 nM (active)"}
{"molecule": "COc1cc(/C=N/NC(=O)c2cccc(N3CCCC3=O)c2)ccc1O", "AC50": "2710 nM (active)"}
{"molecule": "O=C(Nc1nc(-c2ccccc2)ns1)c1cccs1", "AC50": "81000 nM (active)"}
{"molecule": "O=C(Nc1c(C(=O)O)[nH]c2ccccc12)NC1CCCCC1", "AC50": "1260 nM (active)"}
{"molecule": "CCN(CC)c1ccc(CN2CCC(C(=O)NCc3ccc(C)cc3)CC2)cc1", "AC50": "5700 nM (active)"}
{"molecule": "Cc1cc(S(=O)(=O)Nc2ccc(N(C)C)cc2)c(C)s1", "AC50": "704 nM (active)"}
{"molecule": "COc1cc(/C=C/c2cc(C(=O)O)c3ccccc3n2)cc(OC)c1O", "AC50": "141 nM (active)"}
{"molecule": "COc1ccc(N2C(=O)CSC2c2ccccc2[N+](=O)[O-])cc1 (configuration not stated)", "AC50": "4550 nM (active)"}
{"molecule": "COc1ccccc1C(=O)NCCN1CCN(c2ccccc2)CC1", "AC50": "3860 nM (active)"}
{"molecule": "CCCCn1c(-c2ccco2)n[nH]c1=S", "AC50": "33600 nM (active)"}
{"molecule": "CCN(CC)S(=O)(=O)c1ccc(/N=N/c2c(C)[nH]n(C(N)=S)c2=O)cc1", "AC50": "782 nM (active)"}
{"molecule": "Cc1cc(C)cc(N2C(=O)CSC2c2ccccn2)c1 (configuration not stated)", "AC50": "731 nM (active)"}
{"molecule": "O=C(CN1CCN(c2ccc(O)cc2)CC1)Nc1cc([N+](=O)[O-])ccc1Cl", "AC50": "1240 nM (active)"}
{"molecule": "COc1cc(/C=N/n2nnnc2N)ccc1O", "AC50": "1200 nM (active)"}
{"molecule": "C/C(=N/NC(=O)Cc1c(C)n[nH]c1O)c1ccc(O)cc1", "AC50": "1490 nM (active)"}
{"molecule": "COC(=O)c1cc(O)c(O)c(O)c1 [GALLIC ACID METHYL ESTER]", "AC50": "4940 nM (active)"}

###

Biological target: Paired box protein Pax-8 (Homo sapiens)
Test: PAX8 transcriptional activity inhibition in RMG-I – RMG-I cells, luciferase, cherry-pick, dose response (AID 687027)
Assay type: functional, cell-based
The source made the active and inactive calls.
assay-readout: AC50

{"query-smiles": "C[C@@H]1CN([C@H](C)CO)C(=O)c2cc(NS(=O)(=O)c3ccccc3)ccc2O[C@@H](C)CCCCO[C@@H]1CN(C)CC1CCCCC1", "reported-value": "19.6 µM (active)"}
{"query-smiles": "Cc1ccc(S(=O)(=O)N(C)C[C@H]2Oc3cc(C#Cc4ccncc4)ccc3S(=O)(=O)N([C@@H](C)CO)C[C@H]2C)cc1", "reported-value": "3.15 µM (active)"}
{"query-smiles": "O=C(Nc1ccc(F)cc1)N1C[C@@H]2N[C@H](C1)[C@@H]2c1ccc(/C=C/c2ccccc2)cc1", "reported-value": "10.7 µM (active)"}
{"query-smiles": "COc1cc(OC)c(NC2=CC(=O)C(=O)c3ccccc32)cc1Cl", "reported-value": "3.4 µM (active)"}

###

Target: Paired box protein Pax-8 (Homo sapiens, UniProt Q06710)
Sequence (Q06710 whole entry): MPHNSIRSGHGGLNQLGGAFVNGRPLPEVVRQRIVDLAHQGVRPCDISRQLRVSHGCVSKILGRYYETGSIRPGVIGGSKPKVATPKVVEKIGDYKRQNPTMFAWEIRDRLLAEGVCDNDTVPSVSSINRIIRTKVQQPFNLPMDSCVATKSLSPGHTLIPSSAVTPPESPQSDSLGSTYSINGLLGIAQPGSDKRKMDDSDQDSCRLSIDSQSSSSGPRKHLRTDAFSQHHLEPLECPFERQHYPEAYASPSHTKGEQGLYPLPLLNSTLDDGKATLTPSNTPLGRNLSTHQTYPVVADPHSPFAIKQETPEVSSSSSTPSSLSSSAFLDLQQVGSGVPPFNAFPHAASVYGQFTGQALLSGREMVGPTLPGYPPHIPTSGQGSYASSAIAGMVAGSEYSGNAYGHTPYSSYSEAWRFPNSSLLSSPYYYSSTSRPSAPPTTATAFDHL
Experiment: PAX8 transcriptional activity inhibition in RMG-I – RMG-I cells, luciferase, cherry-pick, dose response (AID 687027);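 also: luciferase reporter driven by Pax8 target thyroperoxidase promoter measured by SteadyGlo luminescence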
Assay type: functional, cell-based
Activity calls are given as the source filed them.

{"compound": "COc1ccc(Br)cc1/C=C/C(=O)c1ccc(NC(C)=O)cc1", "AC50": "3.8 µM (active)"}
{"compound": "Cc1cccc(C2(c3cccc(C)c3)CC2C(=O)Nc2ccc([N+](=O)[O-])cc2O)c1 (centres undefined)", "AC50": "7.83 µM (active)"}
{"compound": "CC(C)(C)[C@H](N)C(=O)N[C@H]1CCC2C3CC=C4C[C@@H](O)CC[C@]4(C)C3CC[C@@]21C (some centres undefined)", "AC50": "9.31 µM (active)"}
{"compound": "COc1ccc(S(=O)(=O)N(C)C[C@H]2Oc3c(NC(=O)Nc4ccc(C(F)(F)F)cc4)cccc3C(=O)N([C@@H](C)CO)C[C@H]2C)cc1", "AC50": "7.04 µM (active)"}
{"compound": "C[C@@H]1CCCCO[C@@H](CN(C)S(=O)(=O)c2ccc(Cl)cc2)[C@H](C)CN([C@H](C)CO)C(=O)c2cc(NS(=O)(=O)c3ccc(F)cc3)ccc2O1", "AC50": "3.41 µM (active)"}
{"compound": "C[C@@H]1CCCCO[C@H](CN(C)C(=O)C2CCCCC2)[C@H](C)CN([C@@H](C)CO)C(=O)c2cc(NS(=O)(=O)c3ccc(Cl)cc3)ccc2O1", "AC50": "10.8 µM (active)"}
{"compound": "C[C@H](CO)N1C[C@H](C)[C@@H](CN(C)Cc2ccc(-c3ccccc3)cc2)Oc2ccc(NS(=O)(=O)c3ccccc3)cc2CC1=O", "AC50": "17.4 µM (active)"}
{"compound": "Cn1nnnc1Sc1ncnc2scc(-c3ccc([N+](=O)[O-])cc3)c12", "AC50": "2.57 µM (active)"}
{"compound": "O=C(Nc1ccc(F)cc1)N1CCCCN2[C@@H](CO)[C@@H](c3ccc(C#Cc4ccccc4)cc3)[C@@H]2C1", "AC50": "18.7 µM (active)"}
{"compound": "C[C@@H]1CN([C@H](C)CO)C(=O)c2cc(NC(=O)Nc3ccccc3)ccc2O[C@@H](C)CCCCO[C@H]1CN(C)Cc1ccc(Cl)c(Cl)c1", "AC50": "7.42 µM (active)"}
{"compound": "CN1c2ccc(-c3ccc(C#N)cc3)cc2[C@@H]2[C@@H](CCN2C(=O)NC2CCCCC2)[C@@H]1CO", "AC50": "19.9 µM (active)"}
{"compound": "C[C@H]1CN([C@@H](C)CO)C(=O)c2c(c3ccccc3n2C)-c2ccccc2CO[C@H]1CN(C)S(=O)(=O)c1ccc([N+](=O)[O-])cc1", "AC50": "2.72 µM (active)"}
{"compound": "C[C@@H]1CCCCO[C@@H](CN(C)C(=O)Cc2ccccc2)[C@@H](C)CN([C@@H](C)CO)C(=O)c2cc(NC(=O)Nc3ccc(C(F)(F)F)cc3)ccc2O1", "AC50": "4.87 µM (active)"}
{"compound": "C=Cc1cc(OC)c2c(c1)c(=O)oc1c2cc(OC)c2c(O)ccc(C3OC(C)C(O)C(C)(O)C3O)c21 (centres undefined)", "AC50": "< 0.26 µM (active)"}

###

Biological target: Peroxisome proliferator-activated receptor gamma/Nuclear receptor coactivator 1 (Homo sapiens, UniProt P37231)
Sequence (P37231 whole entry): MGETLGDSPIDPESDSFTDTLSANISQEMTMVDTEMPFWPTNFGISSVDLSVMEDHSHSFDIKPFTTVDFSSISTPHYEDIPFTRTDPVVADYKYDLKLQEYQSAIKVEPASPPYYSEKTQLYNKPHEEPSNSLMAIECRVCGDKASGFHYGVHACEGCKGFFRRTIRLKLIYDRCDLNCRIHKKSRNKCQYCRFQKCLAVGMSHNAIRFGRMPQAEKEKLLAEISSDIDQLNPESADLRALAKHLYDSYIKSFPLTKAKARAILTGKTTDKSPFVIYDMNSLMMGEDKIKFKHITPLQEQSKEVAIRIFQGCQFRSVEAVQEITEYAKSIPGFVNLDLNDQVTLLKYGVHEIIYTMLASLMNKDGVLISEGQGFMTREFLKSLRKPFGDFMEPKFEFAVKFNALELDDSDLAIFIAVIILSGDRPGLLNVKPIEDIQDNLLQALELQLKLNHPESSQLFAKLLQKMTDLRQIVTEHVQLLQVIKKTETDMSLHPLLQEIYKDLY
Sequence (Q15788 whole entry, further chain): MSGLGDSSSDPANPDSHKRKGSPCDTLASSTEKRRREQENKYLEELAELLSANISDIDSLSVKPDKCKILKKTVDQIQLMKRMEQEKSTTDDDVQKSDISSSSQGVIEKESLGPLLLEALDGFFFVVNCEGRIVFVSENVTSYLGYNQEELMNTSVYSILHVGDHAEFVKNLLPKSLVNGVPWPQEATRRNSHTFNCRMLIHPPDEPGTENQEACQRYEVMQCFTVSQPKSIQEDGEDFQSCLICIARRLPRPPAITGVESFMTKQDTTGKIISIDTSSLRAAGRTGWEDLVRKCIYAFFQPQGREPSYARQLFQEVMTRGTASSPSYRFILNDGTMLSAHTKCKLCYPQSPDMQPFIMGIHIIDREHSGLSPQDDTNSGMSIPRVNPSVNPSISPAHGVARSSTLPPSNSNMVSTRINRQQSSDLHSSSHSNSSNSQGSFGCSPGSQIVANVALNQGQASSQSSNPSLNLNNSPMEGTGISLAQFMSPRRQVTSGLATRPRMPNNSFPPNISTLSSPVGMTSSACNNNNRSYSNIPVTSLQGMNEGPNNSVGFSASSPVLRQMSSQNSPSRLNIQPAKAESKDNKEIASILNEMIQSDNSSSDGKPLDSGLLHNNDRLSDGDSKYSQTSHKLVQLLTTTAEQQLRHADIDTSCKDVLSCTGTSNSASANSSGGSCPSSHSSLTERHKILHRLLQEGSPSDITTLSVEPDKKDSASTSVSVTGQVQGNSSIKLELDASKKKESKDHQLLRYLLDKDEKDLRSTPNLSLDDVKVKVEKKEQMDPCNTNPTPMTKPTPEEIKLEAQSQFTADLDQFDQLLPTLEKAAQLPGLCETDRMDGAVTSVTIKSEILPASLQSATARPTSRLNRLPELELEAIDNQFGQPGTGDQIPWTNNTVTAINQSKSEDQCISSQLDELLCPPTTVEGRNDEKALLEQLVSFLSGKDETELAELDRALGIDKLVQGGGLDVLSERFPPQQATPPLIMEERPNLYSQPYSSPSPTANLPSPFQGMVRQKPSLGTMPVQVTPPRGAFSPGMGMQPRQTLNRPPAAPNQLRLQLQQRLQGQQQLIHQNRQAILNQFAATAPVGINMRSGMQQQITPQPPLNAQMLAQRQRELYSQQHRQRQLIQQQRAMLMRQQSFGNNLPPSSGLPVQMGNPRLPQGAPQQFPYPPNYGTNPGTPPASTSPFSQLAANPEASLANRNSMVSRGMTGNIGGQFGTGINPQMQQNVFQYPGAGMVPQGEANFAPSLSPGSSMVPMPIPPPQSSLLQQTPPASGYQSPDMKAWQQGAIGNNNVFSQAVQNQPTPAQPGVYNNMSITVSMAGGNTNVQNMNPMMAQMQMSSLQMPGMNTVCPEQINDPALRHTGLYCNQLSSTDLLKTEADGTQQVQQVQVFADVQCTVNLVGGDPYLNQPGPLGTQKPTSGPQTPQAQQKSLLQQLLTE
Assay: TR-FRET dose response biochemical High Throughput Screening assay for agonists of the steroid receptor coactivator 1 (SRC-1) recruitment by the peroxisome proliferator-activated receptor gamma (PPAR gamma): non-selective agonists. [Related pubchem assays (depositor defined):AID1300, AID1808, AID504735, AID631]
Type: protein assay
Active and inactive are the calls of the source.
Catalogue of molecules with associated EC50

{"molecule": "CCC(C(=O)Nc1nnc(-c2ccco2)s1)c1ccccc1 (centres undefined)", "EC50": "> 79.4 µM (inactive)"}
{"molecule": "Cn1c(=O)cc(SCC(=O)NCc2cccnc2)c2ccccc21", "EC50": "> 79.4 µM (inactive)"}
{"molecule": "Cc1ccc(-n2c(S)nnc2-c2ccccc2)cc1", "EC50": "33.6 µM (inactive)"}
{"molecule": "O=C(Sc1nnc(-c2ccccc2)o1)N1c2ccccc2Sc2ccccc21", "EC50": "34.9 µM (inactive)"}

Values compiled from ChEMBL document CHEMBL1201862.
